- study.system: [Pyruvate dehydrogenase (acetyl-transferring)] kinase isozyme 1, mitochondrial (Homo sapiens)
- Sequence (Q15118 whole entry): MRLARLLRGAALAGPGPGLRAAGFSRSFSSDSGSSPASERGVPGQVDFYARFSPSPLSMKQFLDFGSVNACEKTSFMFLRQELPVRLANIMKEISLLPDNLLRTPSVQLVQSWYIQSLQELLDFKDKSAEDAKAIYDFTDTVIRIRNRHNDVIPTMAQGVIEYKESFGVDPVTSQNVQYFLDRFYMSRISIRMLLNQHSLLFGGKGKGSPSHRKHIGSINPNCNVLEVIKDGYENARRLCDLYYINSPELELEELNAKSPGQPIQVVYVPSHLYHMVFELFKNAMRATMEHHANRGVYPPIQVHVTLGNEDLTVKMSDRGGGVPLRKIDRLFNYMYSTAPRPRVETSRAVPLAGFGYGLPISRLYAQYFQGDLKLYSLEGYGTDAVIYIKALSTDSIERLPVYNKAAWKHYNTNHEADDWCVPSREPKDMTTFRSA
- assay.text: Binding affinity to pyruvate dehydrogenase kinase 1 (unknown origin) incubated for 90 mins by VER-00160364 probe based fluorescence polarization assay
readout.label: pIC50
One number for each entry, as −log10 of the molar value.

Known results for compounds:
# smiles.entry, reported.value
data = [
    ("CN(C)C(=O)c1ccc(N(Cc2ccc(C(F)(F)F)cc2)C(=O)c2cc(Cl)c(O)cc2O)cc1", 7.00),
    ("CN(C)C(=O)c1ccc(N(Cc2cccnc2)C(=O)c2ccc(O)cc2O)cc1", 7.00),
    ("Cc1ccc(C)c(-c2ccc(N(Cc3cccnc3)C(=O)c3ccc(O)cc3O)cc2)n1", 6.00),
    ("CNC(=O)c1ccc(N(Cc2cccnc2)C(=O)c2ccc(O)cc2O)cc1", 6.00),
]

Next up:
Prompt line: I am curious: what pIC50 value has been reported for `CCNc1cc(-c2ccc(N(Cc3cccnc3)C(=O)c3ccc(O)cc3O)cc2)ncn1` ?
Response line: 6.00
